# Tested on: MALME-3M melanoma
# protocol_text: NCI tumour cell line growth inhibition, 48 h
Hi there, I'd appreciate the recorded TGI for every entry that follows.

Asked: Give a short answer stating reported TGI for `O=C1Cc2c([nH]c3ccc([N+](=O)[O-])cc23)-c2ccccc2N1` .
Given back: > 100 µM

Asked: Give a short answer stating reported TGI for `Clc1ccc(N2CCN(CCCN3CCN(c4cccc(Cl)c4)CC3)CC2)cc1` .
Given back: 6.15 µM

Asked: Give a short answer stating reported TGI for `Cc1ccc(NCCN2CCCCC2)c2c(=O)c3ccccc3sc12` .
Given back: 2.55 µM

Asked: Give a short answer stating reported TGI for `CCOC(=O)c1ccc2[nH]c(O)c(C(=Nc3ccc(N(C)C(=O)CN4CCN(C)CC4)cc3)c3ccccc3)c2c1` .
Given back: 1.84 µM

Asked: Give a short answer stating reported TGI for CC(NNC(=S)N1CCCCCC1)c1cccnn1 (configuration not stated) .
Given back: > 100 µM

Asked: Give a short answer stating reported TGI for COc1ccc2c(c1)OCC1c3cc(O)ccc3OC21 (configuration not stated) .
Given back: > 100 µM

Asked: Give a short answer stating reported TGI for CCOc1ccc(NC(=O)C(=O)C2C(=O)Nc3ccccc3S2=O)cc1 (configuration not stated) .
Given back: > 100 µM

Asked: Give a short answer stating reported TGI for `CC(C)(OCc1ccccc1)c1ccccc1P(c1ccccc1)c1ccccc1` .
Given back: > 100 µM

Asked: Give a short answer stating reported TGI for `CCOCc1cc(=O)c2c(O)cc3c(c2o1)CCC(C)(C)O3` .
Given back: > 100 µM

Asked: Give a short answer stating reported TGI for Cc1ccccc1OCC(COC(=O)Nc1ccccc1)OC(=O)Nc1ccccc1 (configuration not stated) .
Given back: > 100 µM

Asked: Give a short answer stating reported TGI for `O=c1cc(-c2ccccc2)[nH]c2ccc(N3CCCCC3)cc12` .
Given back: > 100 µM

Asked: Give a short answer stating reported TGI for `CCN(CC)CCNC(=O)c1cn2ncnc(Oc3ccc(NC(=O)Nc4ccc(Cl)c(C(F)(F)F)c4)cc3)c2c1C` .
Given back: 2.84 µM

Asked: Give a short answer stating reported TGI for `Cc1ncc(CO)c(C=NCCCCCCN=Cc2c(CO)cnc(C)c2[O-])c1[O-].[Cu+2]` .
Given back: > 100 µM

Asked: Give a short answer stating reported TGI for `COc1cc(/C=C/c2ccc(/C=C/c3cc(OC)c(OC)c(OC)c3)cc2)cc(OC)c1OC` .
Given back: 60.1 µM

Asked: Give a short answer stating reported TGI for `N#C/C(=C/c1ccco1)C(=O)c1ccccc1` .
Given back: > 100 µM

Asked: Give a short answer stating reported TGI for O=C1c2ccccc2C2=Cc3ccccc3C(O)N12 (configuration not stated) .
Given back: > 100 µM

Asked: Give a short answer stating reported TGI for CC1(C)COC2(OC1)C1=NS(=O)(=O)CC13CCC2C3(C)C (configuration not stated) .
Given back: > 100 µM

Asked: Give a short answer stating reported TGI for N#CC(/C(=N/N=C(N)N)C(=O)Nc1ccccc1[N+](=O)[O-])c1nc(-c2ccc([N+](=O)[O-])cc2)cs1 (configuration not stated) .
Given back: > 100 µM

Asked: Give a short answer stating reported TGI for `NC1=NS(=O)(=O)Nc2nc(-c3ccccc3)c(-c3ccccc3)nc21` .
Given back: > 100 µM

Asked: Give a short answer stating reported TGI for `Cc1ccccc1C1=C/C(=C(\SS/C(C(=O)c2ccc(OCC(=O)O)c(Cl)c2Cl)=C2\C=C(c3ccccc3C)SS2)C(=O)c2ccc(OCC(=O)O)c(Cl)c2Cl)SS1` .
Given back: > 87.6 µM

Asked: Give a short answer stating reported TGI for C[C@]12Cc3cn[nH]c3C(=O)C1CC[C@@H]1C2CC[C@@]2(C)C1CC[C@]2(C)O (some centres not stated) .
Given back: > 100 µM

Asked: Give a short answer stating reported TGI for `c1ccc2c(c1)c(N1CCCCC1)cc1nc3c(cc(N4CCCCC4)c4ccccc43)nc12` .
Given back: > 100 µM
